Here we list molecules with their recorded IC50 when tested on Proto-oncogene tyrosine-protein kinase Src (Homo sapiens).
Sequence (P12931 2-536 limits assumed): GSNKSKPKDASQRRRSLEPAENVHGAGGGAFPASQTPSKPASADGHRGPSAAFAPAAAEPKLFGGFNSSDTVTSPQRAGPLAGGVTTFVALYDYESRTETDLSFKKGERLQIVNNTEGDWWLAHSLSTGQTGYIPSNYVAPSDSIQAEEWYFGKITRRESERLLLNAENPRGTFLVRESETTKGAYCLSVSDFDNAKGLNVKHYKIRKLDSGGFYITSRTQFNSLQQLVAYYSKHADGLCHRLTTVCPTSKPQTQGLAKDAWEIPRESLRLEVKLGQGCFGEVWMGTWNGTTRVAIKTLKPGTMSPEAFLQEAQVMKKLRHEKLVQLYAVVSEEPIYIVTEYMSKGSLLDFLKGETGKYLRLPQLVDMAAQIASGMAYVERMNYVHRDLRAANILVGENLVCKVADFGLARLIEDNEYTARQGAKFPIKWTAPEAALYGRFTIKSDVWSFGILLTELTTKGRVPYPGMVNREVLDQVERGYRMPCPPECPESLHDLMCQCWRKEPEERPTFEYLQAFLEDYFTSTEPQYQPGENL
MEASURED_METRIC: IC50 (nM)

COc1cc(Nc2c(C#N)cnc3cc4nc(NCCN5CCOCC5)[nH]c4cc23)cc(OC)c1OC 180

P: COc1cc(Nc2c(C#N)cnc3cc4c(cc23)ncn4CCN2CCOCC2)cc(OC)c1OC
Q: COc1ccc(C)c(Nc2c(C#N)cnc3cc4[nH]c(NCCN5CCOCC5)nc4cc23)c1
Recorded IC50 values differ for P and Q ; which one is higher? Give the label under which the chosen entry appears.
P
(P: 200 nM, Q: 67 nM)
